Where do these numbers come from? They come from PubChem BioAssay (EPA / NIEHS).

Target: Paired box protein Pax-6 (Homo sapiens) (UniProt P26367)
Sequence (P26367 whole entry, looked up): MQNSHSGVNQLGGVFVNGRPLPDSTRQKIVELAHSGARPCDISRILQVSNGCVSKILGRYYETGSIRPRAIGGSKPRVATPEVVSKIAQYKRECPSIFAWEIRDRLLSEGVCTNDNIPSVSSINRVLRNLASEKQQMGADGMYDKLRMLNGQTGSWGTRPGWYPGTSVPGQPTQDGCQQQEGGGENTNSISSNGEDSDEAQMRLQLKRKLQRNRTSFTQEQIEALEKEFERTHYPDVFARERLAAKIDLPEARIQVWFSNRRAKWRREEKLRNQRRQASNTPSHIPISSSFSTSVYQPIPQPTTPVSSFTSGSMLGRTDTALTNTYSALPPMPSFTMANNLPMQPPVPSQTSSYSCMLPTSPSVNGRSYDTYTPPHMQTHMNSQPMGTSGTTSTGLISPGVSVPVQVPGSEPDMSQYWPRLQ
Experiment: ATG_Pax6_CIS: Attagene CIS-FACTORIAL HepG2 Assay for human Paired Box 6 (PAX6) (AID 2282956)
Details: HepG2 CIS-FACTORIAL PAX6 reporter transcription, RNA readout; actives raise or lower the signal
Calls of active or inactive are those of the source. How the source made its calls: active means hit-call score of the fitted dose curve at least 0.9, where 1 is the maximum; inactive means score below 0.9.
Property measured: AC50

Examples with answers:
| Compound | AC50 |
| --- | --- |
| CCN(CC)C(=O)c1cccc(C)c1 | inactive |
| COc1c(Cl)ccc(Cl)c1C(=O)O | inactive |
| CCCCCCC(C)OC(=O)COc1nc(F)c(Cl)c(N)c1Cl (configuration not stated) | inactive |
| CC(C)(C)[C@@H](O)[C@@H](Cc1ccc(Cl)cc1)n1cncn1 | inactive |
| CCC(O)=C1C(=O)CC(C(=O)O)CC1=O (configuration not stated) | inactive |

Please report the measured AC50 for Cc1nn(C)c(Oc2ccccc2)c1C=NOCc1ccc(C(=O)OC(C)(C)C)cc1
1880 nM (active)

For the compound COC(=O)c1ccccc1C(=O)O , give its measured AC50 value.
inactive
